# systemTested: T1, human DR3 (full length, on cells) (human, UniProt Q93038 25-417)
# T1 sequence: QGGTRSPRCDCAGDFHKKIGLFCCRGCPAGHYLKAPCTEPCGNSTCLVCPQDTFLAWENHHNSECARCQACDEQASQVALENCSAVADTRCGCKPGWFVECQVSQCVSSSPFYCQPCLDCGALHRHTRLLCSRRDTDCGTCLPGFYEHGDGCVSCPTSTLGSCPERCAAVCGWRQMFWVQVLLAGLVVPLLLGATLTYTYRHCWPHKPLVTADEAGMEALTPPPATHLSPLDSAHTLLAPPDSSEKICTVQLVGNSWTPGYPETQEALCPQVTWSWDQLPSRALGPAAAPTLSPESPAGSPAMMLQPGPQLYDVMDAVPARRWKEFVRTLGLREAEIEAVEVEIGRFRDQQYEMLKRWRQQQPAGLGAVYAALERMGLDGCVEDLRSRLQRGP
# experimentSummary: cell-based or functional assay
// IFN-γ, TL1A-costimulated RA SF cells, Fab 0.01 µg/mL lookup, one value per entry

binder="0118 (chimeric Fab of 27F16, human IgG1 constant domain) (Fab, V domains shown) VH: EVQLVESGGDFVKPGGSLKLSCAASGFTFNNYGMSWVRQTPDKRLEWVAAISSGVTYTYYPDTVKGRFTISRDNAKNTLYLHMSSLKSEDTAMYYCGRHDDYGNHFDYWGQGTTLTVSS VL: DIVMTQSPSSLAMSLGQRVTMNCKSSQSLLNSHNQKNYLAWYQQKPGQSPKLLVYFASSRESGVPDRFIGSGSGTDFTLTISSVQAEDLADYFCQQHYSTPFTFGSGTKLEIKR" measuredresult="2280 pg/mL"
binder="0173 (humanized IgG1 Fab of 0072; HC T28A S49A Y91S; LC Q3A T5A S60A M4L) (Fab, V domains shown) VH: EVQLVESGGGLVQPGGSLRLSCAASGFTFSNYDMSWVRQAAGKGLEWVSAFSSDGYTFYPGAVKGRFTISRENAKNSLYLQMNSLRAGDTAVYYCARHADYANSPVMDYWGQGTLVTVSS VL: DIALAQSPSSLSASVGDRVTITCRASKSVSTSGYSYMHWYQQKPGKAPKLLIYLASNLEAGVPSRFSGSGSGTDFTLTISSLQPEDFATYYCQHSRELPLTFGGGTKVEIK" measuredresult="1230 pg/mL"
binder="0170 (humanized IgG1 Fab of 0072; HC T28A S49A Y91; LC Q3A T5A S60A M4) (Fab, V domains shown) VH: EVQLVESGGGLVQPGGSLRLSCAASGFTFSNYDMSWVRQAAGKGLEWVSAFSSDGYTFYPGAVKGRFTISRENAKNSLYLQMNSLRAGDTAVYYCARHADYANYPVMDYWGQGTLVTVSS VL: DIAMAQSPSSLSASVGDRVTITCRASKSVSTSGYSYMHWYQQKPGKAPKLLIYLASNLEAGVPSRFSGSGSGTDFTLTISSLQPEDFATYYCQHSRELPLTFGGGTKVEIK" measuredresult="1640 pg/mL"

Now examine the next entry.
[Q] Quick one: IFN-γ, TL1A-costimulated RA SF cells, Fab 0.01 µg/mL for 0171 (humanized IgG1 Fab of 0072 without back mutations) (Fab, V domains shown) VH: EVQLVESGGGLVQPGGSLRLSCAASGFTFSNYDMSWVRQATGKGLEWVSAFSSDGYTFYPGSVKGRFTISRENAKNSLYLQMNSLRAGDTAVYYCARHADYANYPVMDYWGQGTLVTVSS VL: DIQMTQSPSSLSASVGDRVTITCRASKSVSTSGYSYMHWYQQKPGKAPKLLIYLASNLESGVPSRFSGSGSGTDFTLTISSLQPEDFATYYCQHSRELPLTFGGGTKVEIK ?
[A] 1380 pg/mL
